Assay: RP, Waters ACQUITY UPLC BEH C18, 38 °C, 0.24 mL/min; A: water + 0.1% formic acid, pH 3; B: acetonitrile + 0.1% formic acid, pH 3; gradient (min/%B) 0/0 0.25/0 0.4/9 0.8/17 1.9/100 2.1/100 2.11/0 3/0
Settings: stereoisomer not certain
Where a name gives a salt, the structure may show the parent alone.
Measured LC retention time accompanies every entry in the list below.
The reply should be a number in min, with the unit left off.

As a guide, the following entries are already answered.
[[record]]
compound = "CS(=O)C=CCCN=C=S (centres undefined)"
measured_quantity = "LC retention time"
recorded_value = 1.44

[[record]]
compound = "CC(=O)OCC=C(C)CCC=C(C)CCC=C(C)C (mixture of isomers) [(cis,trans)-Farnesyl acetate]"
measured_quantity = "LC retention time"
recorded_value = 2

[[record]]
compound = "CC(=O)OCC[N+](C)(C)C [Acetylcholine chloride]"
measured_quantity = "LC retention time"
recorded_value = 0.24

[[record]]
compound = "COc1cc(-c2[o+]c3cc(O)cc(O)c3cc2OC2OC(CO)C(O)C(O)C2O)cc(O)c1O (stereo not drawn) [Petunidin-3-O-beta-glucopyranoside]"
measured_quantity = "LC retention time"
recorded_value = 1.22

[[record]]
compound = "COc1cc(-c2[o+]c3cc(O)cc(O)c3cc2OC2OC(CO)C(O)C(O)C2O)cc(OC)c1O (centres undefined)"
measured_quantity = "LC retention time"
recorded_value = 1.29

[[record]]
compound = "OCC1OC(Oc2cc(O)cc(C=Cc3ccc(O)c(O)c3)c2)C(O)C(O)C1O (centres undefined) [E-3,4,5'-trihydroxy-3'-glucopyranosylstilbene]"
measured_quantity = "LC retention time"
recorded_value = 1.33

[[record]]
compound = "NC1(C(=O)O)CC1"
measured_quantity = "LC retention time"
recorded_value = 0.18

[[record]]
compound = "N[C@H]1C(O)O[C@H](CO)[C@@H](O)[C@@H]1O (stereo partly drawn) [D-(+)-Glucosamine hydrochloride]"
measured_quantity = "LC retention time"
recorded_value = 0.15


Could you now consider this next compound?
Param item = `CC(C)[N+](=O)[O-]` ; retrieve measured LC retention time.
0.3
